Quick list: RAM network inhibition per entry.
- assayProcedure: RAM signaling pathway blockade in yeast – S. cerevisiae, Pdr1DBD-CYC8 efflux-inhibited sensitized strain, primary screen (AID 1298);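 also: 0% = DMSO untreated cells without growth and 100% = 10 µM 1-NA-PP1 full growth; higher means more yeast growth rescued from 5-FOA killing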
- measurementParameters: S. cerevisiae cbk1-as DSE1-URA3 strain, 5-FOA growth OD615, 2 d; at 50 µM; hits give high values
propertyName: RAM network inhibition (%)

- smilesText: "Cn1c(SCC(=O)c2cc3ccccc3o2)nnc1-c1ccccc1"
  measValue: 6.5
- smilesText: "COCCn1c(=N)c(C(=O)NCCc2ccccc2)cc2c(=O)n3cccc(C)c3nc21"
  measValue: 0.2
- smilesText: "Oc1ccc2ccccc2c1CN1CCN(c2ccccc2F)CC1"
  measValue: 0.16
- smilesText: "O=C(Nc1ccc(Cl)cn1)c1cccnc1"
  measValue: -0.47
- smilesText: "Cc1onc(-c2ccccc2Cl)c1C(=O)Nc1nnc(C(C)C)s1"
  measValue: 4.37
- smilesText: "COC(=O)Cn1c(CN2CCc3ccccc3C2)nc2c1c(=O)n(C)c(=O)n2C"
  measValue: 8.74
- smilesText: "CCOc1ccc(N(CC(=O)Nc2ccccc2)S(C)(=O)=O)cc1"
  measValue: 4.68
- smilesText: "CCOc1cc(-c2nc(-c3ccc(OC)cc3)no2)cc(OCC)c1OCC"
  measValue: 9.91
- smilesText: "Clc1ccc(-c2nnc(SCc3nc(-c4ccccc4)no3)o2)cc1"
  measValue: 4.9

Every entry's value here was drawn from PubChem BioAssay.
